target: B-cell lymphoma 6 protein (Homo sapiens)

{"Cpd smiles": "CNC(=O)COc1cc2cc(Nc3nc(N4CCC(C(=O)N(C)C)CC4)ncc3Cl)cc(OC)c2n(C)c1=O", "IC50": "< 30 nM"}

====

Recorded Papp for the following compounds
assay: Permeability of the compound by PAMPA; type: ADME; conditions: read-out: permeability (converted)
Attribute measured: Papp

{"Compound": "Cn1c(=O)cc(NC(C)(C)c2ncc(C3CC3)cn2)c2cc(Nc3ccnc(Cl)c3C#N)ccc21", "Attribute measured": "Papp", "Measured result": "35 ×10⁻⁶ cm/s"}
{"Compound": "CC(Nc1cc(=O)n(C)c2ccc(Nc3ccnc(Cl)c3C#N)cc12)c1ncco1 (stereo unspecified)", "Attribute measured": "Papp", "Measured result": "1 ×10⁻⁶ cm/s"}
{"Compound": "Cn1c(=O)cc(NC(C)(C)c2ncccn2)c2cc(Nc3ccnc(Cl)c3C#N)ccc21", "Attribute measured": "Papp", "Measured result": "1.8 ×10⁻⁶ cm/s"}
{"Compound": "CC(Nc1cc(=O)n(C)c2ccc(Nc3ccnc(Cl)c3C#N)cc12)c1ncc(C2CC2)cn1 (stereo unspecified)", "Attribute measured": "Papp", "Measured result": "14 ×10⁻⁶ cm/s"}
{"Compound": "Cc1nnc(C(C)Nc2cc(=O)n(C)c3ccc(Nc4ccnc(Cl)c4C#N)cc23)o1 (stereo unspecified)", "Attribute measured": "Papp", "Measured result": "< 0.2 ×10⁻⁶ cm/s"}
{"Compound": "CC(Nc1cc(=O)n(CC2CCC2)c2ccc(Nc3ccnc(Cl)c3C#N)cc12)c1ncccn1 (stereo unspecified)", "Attribute measured": "Papp", "Measured result": "21 ×10⁻⁶ cm/s"}
{"Compound": "CNC(=O)C(C)Nc1cc(=O)n(C)c2ccc(Nc3ccnc(Cl)c3C#N)cc12 (stereo unspecified)", "Attribute measured": "Papp", "Measured result": "< 0.2 ×10⁻⁶ cm/s"}
{"Compound": "Cc1cnc(C(C)Nc2cc(=O)n(C)c3ccc(Nc4ccnc(Cl)c4C#N)cc23)nc1 (stereo unspecified)", "Attribute measured": "Papp", "Measured result": "5.6 ×10⁻⁶ cm/s"}
{"Compound": "CC(Nc1cc(=O)n(CC2CC2)c2ccc(Nc3ccnc(Cl)c3C#N)cc12)c1ncccn1 (stereo unspecified)", "Attribute measured": "Papp", "Measured result": "8.5 ×10⁻⁶ cm/s"}
{"Compound": "C[C@@H](Nc1cc(=O)n(C)c2ccc(Nc3ccnc(Cl)c3C#N)cc12)c1ncccn1", "Attribute measured": "Papp", "Measured result": "0.8 ×10⁻⁶ cm/s"}
{"Compound": "CC(Nc1cc(=O)n(C)c2ccc(Nc3ccnc(Cl)c3C#N)cc12)c1ncn(C)n1 (stereo unspecified)", "Attribute measured": "Papp", "Measured result": "1.8 ×10⁻⁶ cm/s"}
